study_target: UPF1 (UniProt Q92900)
Sequence: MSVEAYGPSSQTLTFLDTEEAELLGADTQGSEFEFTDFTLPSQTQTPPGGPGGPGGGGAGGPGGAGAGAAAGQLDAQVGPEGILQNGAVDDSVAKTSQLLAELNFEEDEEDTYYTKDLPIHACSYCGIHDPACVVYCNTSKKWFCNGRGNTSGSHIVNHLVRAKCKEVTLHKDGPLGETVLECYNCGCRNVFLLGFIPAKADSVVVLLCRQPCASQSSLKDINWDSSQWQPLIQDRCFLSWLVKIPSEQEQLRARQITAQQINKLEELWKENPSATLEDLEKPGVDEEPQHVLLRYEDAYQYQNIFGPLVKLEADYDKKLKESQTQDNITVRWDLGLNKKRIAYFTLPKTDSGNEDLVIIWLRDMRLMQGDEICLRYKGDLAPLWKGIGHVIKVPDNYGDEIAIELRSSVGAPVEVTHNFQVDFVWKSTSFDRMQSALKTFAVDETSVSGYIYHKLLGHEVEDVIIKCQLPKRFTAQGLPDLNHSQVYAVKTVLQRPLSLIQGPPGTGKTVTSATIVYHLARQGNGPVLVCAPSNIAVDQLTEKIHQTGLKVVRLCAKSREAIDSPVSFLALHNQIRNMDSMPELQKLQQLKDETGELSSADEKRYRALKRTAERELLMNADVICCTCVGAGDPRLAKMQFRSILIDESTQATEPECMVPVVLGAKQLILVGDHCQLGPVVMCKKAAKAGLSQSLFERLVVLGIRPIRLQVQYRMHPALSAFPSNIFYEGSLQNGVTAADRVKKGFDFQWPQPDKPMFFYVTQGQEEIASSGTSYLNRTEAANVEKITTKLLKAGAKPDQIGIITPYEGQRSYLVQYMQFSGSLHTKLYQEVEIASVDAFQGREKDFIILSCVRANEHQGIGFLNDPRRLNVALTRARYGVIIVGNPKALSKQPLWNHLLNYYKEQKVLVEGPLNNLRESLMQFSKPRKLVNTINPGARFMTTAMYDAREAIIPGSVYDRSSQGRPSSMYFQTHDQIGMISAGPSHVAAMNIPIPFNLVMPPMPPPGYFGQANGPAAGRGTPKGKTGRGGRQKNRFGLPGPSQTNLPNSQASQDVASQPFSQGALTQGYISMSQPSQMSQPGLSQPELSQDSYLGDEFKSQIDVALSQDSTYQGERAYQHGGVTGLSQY
method_description: EC50 of free RNA motif oligo competing protein binding to immobilised probe
recorded_metric: EC50 (µM)
Answers are plain numbers, in µM.

// EC50 (UPF1 (UniProt Q92900)) for `AAUAAA` = 4.9

---

study_target: RPS5 (UniProt P46782)
method_description: Kd (EC50 corrected by depletion factor)
recorded_metric: pKd
Numbers only, as −log10 of the molar value.

Given item `CUGUCCU` , the value recorded as its pKd is 6.84

---

study_target: MRPS23 (UniProt Q9Y3D9)
method_description: EC50 of free RNA motif oligo competing protein binding to immobilised probe
recorded_metric: EC50 (nM)
Numbers only, in nM.

Given item `UAUUUAU` , the value recorded as its EC50 is 40

---

study_target: SRSF11 (UniProt Q05519)
Sequence: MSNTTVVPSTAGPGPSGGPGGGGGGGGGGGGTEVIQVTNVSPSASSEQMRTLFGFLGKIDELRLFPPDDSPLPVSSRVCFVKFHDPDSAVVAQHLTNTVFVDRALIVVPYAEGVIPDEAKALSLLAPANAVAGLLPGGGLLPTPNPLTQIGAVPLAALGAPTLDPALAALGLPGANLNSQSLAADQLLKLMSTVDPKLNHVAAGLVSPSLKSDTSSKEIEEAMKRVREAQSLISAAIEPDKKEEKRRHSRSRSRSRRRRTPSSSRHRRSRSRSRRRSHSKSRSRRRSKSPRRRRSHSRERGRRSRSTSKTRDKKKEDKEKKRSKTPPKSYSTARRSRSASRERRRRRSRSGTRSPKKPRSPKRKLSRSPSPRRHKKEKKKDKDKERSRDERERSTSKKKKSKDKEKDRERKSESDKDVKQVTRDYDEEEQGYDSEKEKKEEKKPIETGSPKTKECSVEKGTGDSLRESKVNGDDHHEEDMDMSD
method_description: Kd (EC50 corrected by depletion factor)
recorded_metric: pKd
One number for each entry, as −log10 of the molar value.

Given item `AAUAAA` , the value recorded as its pKd is 6.90
